From: patent US20120238532A1

ASSAY_NAME: Organ weight in mice
Format: in vivo
TEST_SETTINGS: HD-CuB 1.0 mg/kg; day 35
REPORTED_PROPERTY: Kidney organ weight (mg)
Please reply with the bare figure in mg and do not write the unit itself.

I would be grateful if you could share the reported Kidney organ weight for CC(=O)OC(C)(C)/C=C/C(=O)[C@](C)(O)[C@H]1[C@H](O)C[C@@]2(C)[C@@H]3CC=C4[C@H](C[C@H](O)C(=O)C4(C)C)[C@]3(C)C(=O)C[C@]12C .
370

====

ASSAY_NAME: Organ weight in mice
Format: in vivo
TEST_SETTINGS: LD-CuB 0.5 mg/kg; day 35
REPORTED_PROPERTY: Kidney organ weight (mg)
Unit mg implied. Number only.

Kidney organ weight for CC(=O)OC(C)(C)/C=C/C(=O)[C@](C)(O)[C@H]1[C@H](O)C[C@@]2(C)[C@@H]3CC=C4[C@H](C[C@H](O)C(=O)C4(C)C)[C@]3(C)C(=O)C[C@]12C ?
360

====

ASSAY_NAME: Organ weight in mice
Assay type: in vivo
TEST_SETTINGS: LD-CuB 0.5 mg/kg; day 35
Text: At autopsy, tumors and internal organs including liver, spleen, kidneys were excised, weighed, and then fixed in 10% PBS-buffered formalin and maintained in 70% ethanol. For IHC, fixed tumors and organs were embedded in paraplast (Oxford Labware, St. Louis, Mo.), cut in 6 μm thick sections, and stained with hematoxylin and eosin (HE) for histopathological examination.
REPORTED_PROPERTY: Spleen organ weight (mg)
Give just the numeric value; mg need not be written.

// Spleen organ weight lookup, key: CC(=O)OC(C)(C)/C=C/C(=O)[C@](C)(O)[C@H]1[C@H](O)C[C@@]2(C)[C@@H]3CC=C4[C@H](C[C@H](O)C(=O)C4(C)C)[C@]3(C)C(=O)C[C@]12C
117

====

ASSAY_NAME: Organ weight in mice
Assay type: in vivo
TEST_SETTINGS: LD-MTX 150 mg/kg; day 35
REPORTED_PROPERTY: Kidney organ weight
Write your answer as a measured quantity: the number, then the unit.

Request the reported Kidney organ weight associated with CN(Cc1cnc2nc(N)nc(N)c2n1)c1ccc(C(=O)N[C@@H](CCC(=O)O)C(=O)O)cc1 [MTX, methotrexate, reference compound]
345 mg

====

ASSAY_NAME: Organ weight in mice
Type: in vivo
TEST_SETTINGS: LD-MTX 150 mg/kg; day 35
Text: At autopsy, tumors and internal organs including liver, spleen, kidneys were excised, weighed, and then fixed in 10% PBS-buffered formalin and maintained in 70% ethanol. For IHC, fixed tumors and organs were embedded in paraplast (Oxford Labware, St. Louis, Mo.), cut in 6 μm thick sections, and stained with hematoxylin and eosin (HE) for histopathological examination.
REPORTED_PROPERTY: Spleen organ weight (mg)
Return type: number; implicit unit mg.

Requested read-out: Spleen organ weight. Entry: CN(Cc1cnc2nc(N)nc(N)c2n1)c1ccc(C(=O)N[C@@H](CCC(=O)O)C(=O)O)cc1 [MTX, methotrexate, reference compound]
135

====

ASSAY_NAME: Organ weight in mice
Format: in vivo
TEST_SETTINGS: HD-CuB 1.0 mg/kg; day 35
REPORTED_PROPERTY: Spleen organ weight (mg)
Kindly answer with a numeric value in mg, unit omitted.

I would be grateful if you could share the reported Spleen organ weight for CC(=O)OC(C)(C)/C=C/C(=O)[C@](C)(O)[C@H]1[C@H](O)C[C@@]2(C)[C@@H]3CC=C4[C@H](C[C@H](O)C(=O)C4(C)C)[C@]3(C)C(=O)C[C@]12C [CuB, cucurbitacin B] .
110

====

ASSAY_NAME: Organ weight in mice
Assay type: in vivo
TEST_SETTINGS: LD-CuB 0.5 mg/kg; day 35
From the text: At autopsy, tumors and internal organs including liver, spleen, kidneys were excised, weighed, and then fixed in 10% PBS-buffered formalin and maintained in 70% ethanol. For IHC, fixed tumors and organs were embedded in paraplast (Oxford Labware, St. Louis, Mo.), cut in 6 μm thick sections, and stained with hematoxylin and eosin (HE) for histopathological examination.
REPORTED_PROPERTY: Liver organ weight (mg)
Record the value in mg, omitting the unit from your answer.

# input compound: CC(=O)OC(C)(C)/C=C/C(=O)[C@](C)(O)[C@H]1[C@H](O)C[C@@]2(C)[C@@H]3CC=C4[C@H](C[C@H](O)C(=O)C4(C)C)[C@]3(C)C(=O)C[C@]12C ; wanted: its Liver organ weight
1250
